B1: TPR t1 (parent)
chain: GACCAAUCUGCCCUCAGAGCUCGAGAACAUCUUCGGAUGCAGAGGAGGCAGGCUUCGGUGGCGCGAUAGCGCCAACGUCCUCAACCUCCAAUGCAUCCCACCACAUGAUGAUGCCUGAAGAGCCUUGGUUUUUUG

Variants of: B1
Experiment: polymerase ribozyme fitness, log enrichment relative to wild type (log ratio); higher = more active; in vitro selection for triplet polymerase activity
Label met when polymerase ribozyme fitness (log ratio) >= -3; otherwise not met.

Here are 6 variants together with their reported answers.
G71U C99U G120U | not met
G52U C76G C97U | met
A27U G44A U129A | not met
A2U G10U A100C | not met
A6U G44A | met
A41U A83C G110A | not met

Is polymerase ribozyme fitness (log ratio) at least -3? Consider A37U G51U G60C C85U U96A G113A not met

Is polymerase ribozyme fitness (log ratio) at least -3? Consider G44U G120U met

Is polymerase ribozyme fitness (log ratio) at least -3? Consider A2C U59C C73A U131A met

Is polymerase ribozyme fitness (log ratio) at least -3? Consider U7A U32C met

Is polymerase ribozyme fitness (log ratio) at least -3? Consider A37G C89A C102A C124U not met

Is polymerase ribozyme fitness (log ratio) at least -3? Consider A26G U112G met

Is polymerase ribozyme fitness (log ratio) at least -3? Consider G36U G61A met

FYI, the data here is from the RNAGym collection of RNA variant scans (doi:10.1073/pnas.2313332121).
